Test system: HOP-18
EXPERIMENTAL DETAILS: NCI tumour cell line growth inhibition, 48 h
Active and inactive are the calls of the source. Rule as the data show it: active = GI50 up to about 1.1 µM and inactive = higher.
// values below are reported GI50

Study these solved cases before continuing.
In [3]: df
Out[3]:
                                   compound  measurement_target  measured_endpoint               result
0                       Clc1cc2nsnc2c(Cl)n1              HOP-18               GI50   17.5 µM (inactive)
1             CN1Cc2cc3c(cc2-c2ccccc21)OCO3              HOP-18               GI50  > 100 µM (inactive)
2  CCCCCCCCCCCCOCCCOP(=O)([O-])OCC[N+](C)(C)C              HOP-18               GI50   32.7 µM (inactive)
3  COc1cccc2c1C(=O)c1c(O)c3c(c(O)c1C2=O)CC(O)(C(C)=O)CC3OC1CC([N+](C)(C)C)C(O)C(C)O1 (stereo unspecified)              HOP-18               GI50  > 100 µM (inactive)
4   CCn1c(=O)c(C(=O)O)c(Cl)c2cc3c(cc21)OCO3              HOP-18               GI50  > 100 µM (inactive)

Prompt: Look up and report GI50, with HOP-18 as system, for COc1ccc(N(CC(=O)O)S(=O)(=O)c2ccccc2)cc1
Response: > 100 µM (inactive)

###

Tested on: UACC-257
EXPERIMENTAL DETAILS: NCI tumour cell line growth inhibition, 48 h
The source made the active and inactive calls. Rule as the data show it: active = GI50 up to about 1.1 µM and inactive = higher.
GI50 values for the compounds below.

// known answers, use as guide
>>> df
          query_smiles              result
0         CSS(C)(=O)=O  23.9 µM (inactive)
1  Clc1cc2nsnc2c(Cl)n1  26.7 µM (inactive)

Continue with the compound presented below.
Prompt: // fetch GI50 given entry CCOC(=O)CSC(=O)NCCCl
Response: > 100 µM (inactive)

###

Each item that follows carries a reported GI50.
Tested on: DU-145
EXPERIMENTAL DETAILS: NCI tumour cell line growth inhibition, 48 h
Active and inactive are the calls of the source. Rule as the data show it: active = GI50 up to about 1.1 µM and inactive = higher.

Observe how each entry below is paired with its result.
>>> print(df.to_string())
                                   compound               result
0   Cc1ccc2c(c1)C(=O)C1(C2)Cc2ccc(C)cc2C1=O  > 100 µM (inactive)
1  O=S(=O)(N/N=C1\CC2CCC1C2)c1ccccc1 (stereo not given)  > 100 µM (inactive)
2  C/C(=C\CO)CC/C=C(\C)CNc1ccc([N+](=O)[O-])cc1   50.4 µM (inactive)
3  CC(=O)C(C(C)=O)[C@H]1OC(C)(C)O[C@H]1[C@H]1COC(C)(C)O1   42.1 µM (inactive)

As a next step, examine the compound that follows.
Prompt: Under DU-145: report GI50 of CCOC(=O)c1c(-c2ccc(OC)cc2)c(C#N)c(=S)n(C2OC(COC(C)=O)C(OC(C)=O)C(OC(C)=O)C2OC(C)=O)c1C (stereo not given) .
Response: > 100 µM (inactive)

Hey, just so you know, these numbers are from ChEMBL document CHEMBL1201862.
